FYI, the data here is from ChEMBL document CHEMBL1201862.

Could you please report measured GI50 for the items listed next?
tested on: SF-539; assay: NCI tumour cell line growth inhibition, 48 h
Activity calls are given as the source filed them. Rule as the data show it: active = GI50 up to about 1.1 µM and inactive = higher.

(Q) Tell me GI50 reported for "CCOP(=O)(OCC)/C(C#N)=C/c1ccco1"
(A) > 100 µM (inactive)

(Q) Tell me GI50 reported for "CC(C)c1ccc(C(c2c(O)oc3ccccc3c2=O)c2c(O)oc3ccccc3c2=O)cc1"
(A) 21.8 µM (inactive)

(Q) Tell me GI50 reported for "OCCCNc1[nH]cnc2nncc1-2"
(A) 41.1 µM (inactive)

(Q) Tell me GI50 reported for N#Cc1nn(C2OC(COC(=O)c3ccccc3)C(OC(=O)c3ccccc3)C2OC(=O)c2ccccc2)c2nc[nH]c(=O)c12 (stereo not given)
(A) 68.4 µM (inactive)

(Q) Tell me GI50 reported for "O=C(Nc1nncs1)NS(=O)(=O)n1cnc2ccccc21"
(A) > 100 µM (inactive)

(Q) Tell me GI50 reported for "COc1ccc(NC(=S)N/N=C/c2cccc(C)n2)cc1"
(A) 6.12 µM (inactive)

(Q) Tell me GI50 reported for "Cn1c2ccccc2c(=NNc2cccc(C(=O)O)c2)c2ccccc21"
(A) 19.2 µM (inactive)

(Q) Tell me GI50 reported for Cc1ccc(C)n1-c1ccccc1C1C=Cn2c(=O)oc3c(OC(C)C)c(OC(C)C)c(O)c1c32 (stereo not given)
(A) > 100 µM (inactive)

(Q) Tell me GI50 reported for "NC(=S)N/N=C\c1ccc(OCc2cccc(COc3ccc(/C=N/NC(N)=S)cc3)n2)cc1"
(A) > 100 µM (inactive)

(Q) Tell me GI50 reported for "COC(=O)NN=C1C(C)(C)C(=O)C1(C)C"
(A) > 100 µM (inactive)
